Provenance of the data: a melting point compilation (Tetko et al.; mined from patent text by program, amines drawn as free bases though some values may be those of a salt)

observable: melting point

Record excerpt, results attached:
> print(dat)
                                    compound     observable   assay.result
 1       CCc1nc2c(N)nc3ccccc3c2n1CC1(O)CCCC1  melting point         210 °C
 2      COC(=O)c1c2nc3ccccc3c-2[nH]c2ccccc12  melting point  152 to 154 °C
 3       O=C1CNN(Cc2cccc(C(F)(F)F)c2)C(=O)N1  melting point         152 °C
 4                     COCCOCCOc1ccc(C=O)cc1  melting point    44 to 47 °C
 5            CCOC(=O)c1cc2c(F)cccc2[nH]c1=O  melting point         180 °C
 6  CC(Cc1ccc(OCc2ccccc2)cc1)NCC(O)c1cccc(Cl)c1 (stereo unspecified)  melting point    95 to 99 °C
 7  CCn1c(=O)c(=O)[nH]c2cc(-n3cccc3)c([N+](=O)[O-])cc21  melting point  248 to 250 °C
 8    N#CCc1ccc(OCc2ccccc2)c([N+](=O)[O-])c1  melting point    91 to 97 °C
 9            O=C(O)c1ccc2c(-c3ccccc3)coc2c1  melting point  160 to 170 °C
10  CCOC(=O)Cn1nc(-c2cc(C(C)(C)C)c(O)c(C(C)(C)C)c2)c2cccnc21  melting point  117 to 120 °C

Incoming: // lookup melting point for C=CCSC1=C(O)CC(C)(C)CC1=O
Outgoing: 67.5 to 69.5 °C

----------
observable: melting point

> print(dat)
                                   compound   assay.result
1  COc1cc(Cn2c(=O)n(C3CCCCC3)c3cc(Cl)ccc32)ccc1[N+](=O)[O-]         176 °C
2  CCCCCCCCCCCCOc1ccc(-c2cc3ccccc3[nH]2)cc1         204 °C
3  C=Cc1cn(-c2c(Cl)cc(C(F)(F)F)cc2Cl)nc1C(F)(F)F    95 to 98 °C
4  CC(C)C(=O)N[C@@H](CSC(=O)c1ccccc1)C(=O)NCCSC(=O)c1ccccc1  154 to 156 °C
5                COc1ncnc(OC)c1[N+](=O)[O-]  168 to 170 °C
6       Cc1ccc2c(c1)C(=O)N1CCN=C1N2N1CCCCC1  197 to 199 °C

Incoming: Returns the measured melting point for the input compound. Input: O=C(NCC1CCCCN1)c1cc(O)ccc1OCC(F)(F)F (stereo unspecified)
Outgoing: 134 to 137 °C

Incoming: # lookup: melting point of COC(=O)CN(C=O)C1c2ccccc2CC1(C)C (stereo unspecified)
Outgoing: 172 to 173 °C

Incoming: melting point for O=C(C=Cc1ccc(O)cc1)N(CCO)CCO ?
Outgoing: 148 to 150 °C

Incoming: Can you share its melting point? I mean this compound: CCC(=O)NC(=O)Nc1ccc(OC)c(OC)c1
Outgoing: 193 to 197 °C

Incoming: Fill in: melting point of O=[N+]([O-])c1ccc(O)c(Cl)c1Cl is ___
Outgoing: 148 to 150 °C

----------
observable: melting point

Sample records with melting point:
> print(dat)
                                   molecule   assay.result
1  CN(C)CCCN1C(=O)c2cc(Cl)c(S(N)(=O)=O)cc2C1=O  192 to 194 °C
2          CCCCC[C@@H](C(=O)O)c1cccc2c1OCO2    47 to 48 °C
3  CCN(CC)CC(=O)Nc1cccc(-c2cc(-c3ccc(F)cc3OCOC)nc(NC(=O)c3ccco3)c2C#N)c1  126 to 128 °C
4             N#CC(=NNC(=N)N)c1cccc(Cl)c1Cl  221 to 222 °C

Incoming: # get_value(readout='melting point', item= O=C(O)c1conc1-c1ccc(F)cc1 )
Outgoing: 170 to 174 °C

Incoming: For the molecule COc1ccc(NC(=O)NCc2ccc3c(c2)CN(C2CCC(=O)NC2=O)C3=O)cc1OC (stereo not given) , what melting point is on record?
Outgoing: 216 to 218 °C

Incoming: Which melting point value is on record for COc1ccc(-c2c(Cl)c(CN3CCCC3)nc3sc4c(c23)CCN(Cc2ccccc2)C4)cc1OC ?
Outgoing: 157 to 158 °C

Incoming: Would you kindly share the measured melting point for CC(=O)N1c2ccccc2Sc2cc([N+](=O)[O-])ccc21 ?
Outgoing: 144 to 146 °C

Incoming: For the molecule Cc1ccc(N(C)S(=O)(=O)c2cccs2)c2[nH]c(C3=NCC(CCO)S3)cc12 (stereo not given) , what melting point is on record?
Outgoing: 168 to 169 °C

Incoming: Item BrC(Br)=Cc1ccc(OCc2ccccc2)cc1 has what recorded melting point?
Outgoing: 97 to 98 °C

Incoming: Dear colleague, I am looking for the recorded melting point of the following molecule: O=C(c1cccnc1Cl)N1CCN=C1Cc1ccccc1Cl
Outgoing: 128 to 130 °C

Incoming: Fill in the blank: the reported melting point of COc1cc(COc2nn(-c3ccccc3)cc2CCC(=O)O)ccc1OCc1nc(-c2ccco2)oc1C is ____.
Outgoing: 161 to 162 °C

Incoming: For the molecule COc1ccccc1-c1ccccc1C#N , what melting point is on record?
Outgoing: 54 to 55 °C

Incoming: Fill in the blank: the reported melting point of O=C1c2ccccc2C(=O)N1OCc1cnn(C(c2ccccc2)(c2ccccc2)c2ccccc2)c1 is ____.
Outgoing: 186 to 188 °C

Incoming: Recorded melting point for COc1cc(SC)c(C)cc1OCCBr , please?
Outgoing: 66 to 67 °C

Incoming: Sample COc1cc(Nc2nccc(-c3sc(Nc4ccccc4)nc3C)n2)cc(OC)c1 — what was its melting point?
Outgoing: 191 to 194 °C

Incoming: Using the record for Cc1ccccc1C(=O)N(CN(C)C)c1ccc(C(=O)N2Cc3ccccc3Cc3ccccc32)cc1 , report its melting point.
Outgoing: 131 to 133 °C

Incoming: Which melting point is listed for COCOCC1(C)Cc2c(C)c(N3CCN(c4ccc(OC)cc4)CC3)c(C)c(C)c2O1 (stereo not given) ?
Outgoing: 111 to 114 °C

Incoming: Dear colleague, I am looking for the recorded melting point of the following molecule: Cc1cccc(OS(=O)(=O)c2ccc(N3CCCNC3=O)cc2)c1
Outgoing: 145 to 147 °C

Incoming: Query (molecule): COc1ccnc(CSc2nc3cscc3n2COC(C)=O)c1 ; field requested: melting point
Outgoing: 111 to 113 °C
